B1: Lysozyme C, P61626 (parent)
chain: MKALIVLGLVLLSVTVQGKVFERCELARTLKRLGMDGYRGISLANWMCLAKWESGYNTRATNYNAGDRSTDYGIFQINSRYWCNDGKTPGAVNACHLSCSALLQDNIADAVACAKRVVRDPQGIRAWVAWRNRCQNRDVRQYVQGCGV

- Variants of: B1
- Test conditions: Homo sapiens; pH 2.7; Thermal; DSC; glycine 0.05 M; reversible: yes; structure 1LZ1; whole UniProt chain shown
Attribute measured: change of melting temperature, mutant - wild type (higher = more stable) (°C)

Mutation key | Unit abbreviation | Test value
V92A | °C | -1.1
V111A | °C | -2.3
V20A | °C | -4.6
V118A | °C | -0.8
V128A | °C | 1.5
V143A | °C | -4
V148A | °C | -2.6
V139A | °C | -4.5
V117A | °C | -3

Each recorded value in this set is attributed to FireProtDB (doi:10.1021/bi9621829).
